- Test system: K4 kissing-loop RNA reporter;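 note: bound reporter read as fluorescence of individual clusters on recovered sequencing chips by microscopy, with normalized cluster intensities fitted with a binding model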
- test-method-notes: apparent KD of K4 kissing-loop reporter; higher = weaker reporter binding
- conditions-used: Eterna round: R107; input ligand: arginine 13.2 mM
Decision: apparent KD of K4 kissing-loop reporter compared against 0.3 µM; not below it gives fulfilled, below it gives not fulfilled.

1. UAGGAGUGAUGUUCCUAUAGCAGGUAGGAAGGAGCGCCCAUUUGGGCAGGUAGGUCGCCUACCGGCCCUAAGUUAAACCUUAGGC [Rariar] ... not fulfilled
2. AAUUUACAAUAAUCAUUUAAAGGAUCAGAAGGAGCGUGAAAUAACACAGGUAGGUCGCUGAGCGAGUGAUGUUCGCUAUAUACAA [JR_ExcArginiA_Sub001] ... not fulfilled
3. UGAUAGGACAGAAGGAGCGGAGGUCGUCAAAGACGACCAAUACGUUAAAUAGGAGUGAUGUUCCAGGUAGGUCGCUGUCCUAUCU [ArgBX 30 #SwitchBubble #StaticStem] ... not fulfilled
4. UUUGUAUAGGGAAGGAGCGUGAAUGAGAAAGAAUAUAGUGAUGUUAUAUAGAAGAAAGAAUCACAGGUAGGUCGCCCGGAGGAGG [SSArgB.G] ... fulfilled
5. GGUUAGUGAUGUUGAUCAAAUCGCGGUGAUACCAGCAACACAUCGUGCCCUUGGCAGCACGGCAAAAUGAAUGCGGUCGAAUGCG [theeternabot_exclusion_KL_Theo_A_19] ... fulfilled

----------
Here, each record is paired with measured apparent KD of MS2 coat protein data.
- Test system: MS2 coat protein
- test-method-notes: apparent KD of MS2 coat protein, switch OFF state (with FMN for OFF switches, without FMN for ON switches); designed switch direction (-1 OFF switch, 1 ON switch): 1; higher = weaker reporter binding
- conditions-used: FMN input: 0 or 200 uM; Eterna round: R93 (includes R88 designs)
observation-type: apparent KD of MS2 coat protein (nM)

1) UAAAAAACGUAUGAGGAUAUCCAAAAUAAAACAUGAGGAUCACCCAUGUGAAUAAAAUAACAAUGGGAGAAGGCAUACGUAUCAU [Mat - Same state - Malcolm Mod - D138] ... 20.8
2) AGGAGACAUGAGGAUCACCCAUGUAGAAGGAUGGGAGGAUAUACAAAGACGAGAGUCAGAGUAGAAGGCCUAGGGA [salish99-ss1-183(!)] ... 54.1
3) AAAUAACAUGAGGAUCACCCAUGUUACGACUUUACAGGAUAUGUGGGUGAAAAUAGCAUGACAGAAGGGUACAGUA [SameState1 Malc#36] ... 112
4) UAAAAACAUGAGGAUCACCCAUGUAAGAUAAACACAGGAUAUGCGAAAAGAAACAAAGAAGCAGAAGGGUGAAAAU [Mat - Same State 1 - Tesla mod - 44] ... 64.8
5) AAAUAACAUGAGGAUCACCCAUGUCAAAUAAAUCGAGGAUAUGGGCCCGGGUUCCGGGAGCCAGAAGGCGAAAAGA [Teledimaqu] ... 41.6

----------
Here, each record is paired with measured apparent KD of MS2 coat protein data.
- System: MS2 coat protein
- test-method-notes: apparent KD of MS2 coat protein; higher = weaker reporter binding
- conditions-used: Eterna round: R107; input ligand: theophylline 2 mM
observation-type: apparent KD of MS2 coat protein (nM)

1) UGUAUGGACUGAAGGAGCGCCUCAAAACAUGAGGAUCACCCAUGUGGACAAUAAGUCCUUGGGCAGGUAGGUCGCAGUCCAUACU [ArgBX 6 #StaticStem #MS2Late] ... 85.3
2) AAAAGUGGGUCAAUUAUUUAAACUUCAGAAGGAGCGUGAUGUUUCACAGGUAGGUCGCUGAUAACAUGAGGAUCACCCAUGUAUU [JR_ExcArginiA_Sub007] ... 54.4
3) UAAUGCAGGUCGGCCGCCACUACACACAUGAGGAUCACCCAUGUAGUUACUGGGUGAAGUGGCAGUAGGACCGGGACCUGCAUAC [Brourdmod04] ... 833
